# System: TK-10 renal
# protocol_text: NCI tumour cell line growth inhibition, 48 h
reported_metric: TGI

> print(dat)
                                    compound    result
 1                       N#CC(C#N)SCc1ccccc1  > 100 µM
 2  C#CCOCC12C=CC(O1)C1COC(=O)C12 (stereo not given)  > 100 µM
 3  Cc1cc(O)c2c(c1)C(O)(c1ccc3c(c1O)C(=O)c1c(O)cc(C)cc1C3(O)C1OC(CO)C(O)C(O)C1O)c1cccc(O)c1C2=O (stereo not given)   27.2 µM
 4  O=C(C(=O)c1ccc(Cc2ccc(C(=O)C(=O)c3ccccc3)cc2)cc1)c1ccccc1  > 100 µM
 5     Cc1nc2c(n1CC(C)(C)C)C(=O)c1ccccc1C2=O  > 100 µM
 6  COc1ccc2nc(-c3ccccc3)cc(Nc3cccc(/C(C)=N\O)c3)c2c1   9.69 µM
 7     Cn1nc2c(c1N)Cc1c(nn(C)c1N)-c1ccccc1-2  > 100 µM
 8  CC(C)=CCC12Cc3ccc(O)cc3C(C(C)CN1)C2C (stereo not given)  > 100 µM
 9  Cc1cn(CCCCCOC(=O)NC(CCCNC(N)=O)C(=O)O)c(=O)[nH]c1=O (stereo not given)  > 100 µM
10  O=c1c(-c2ccccc2)c(SCCN2CCCCCC2)n(-c2ccccc2)c(=S)n1-c1ccccc1  > 100 µM

====

Recorded GI50 by entry
# Test system: OVCAR-5 ovarian
# protocol_text: NCI tumour cell line growth inhibition, 48 h
reported_metric: GI50

> print(dat)
                                    molecule  reported.metric     result
 1  S=C(N/N=C/c1cc(Cl)cc(Cl)c1)NC12CC3CC(CC(C3)C1)C2             GI50    13.6 µM
 2  Clc1ccc([O][In]([O]c2ccc(Cl)cn2)[O]c2ccc(Cl)cn2)nc1             GI50   > 100 µM
 3  Nc1cc(N)c2nc(-c3ccccc3)c(Oc3ccc(F)cc3)nc2c1             GI50    20.6 µM
 4  COc1ccc(OC)c(-c2cc(-c3ccccc3)nn2-c2ccc(S(=O)(=O)NC(C)=O)cc2)c1             GI50    16.9 µM
 5  Cc1cc(N(CCNc2ccnc3cc(Cl)ccc23)Cc2ccc3c(c2)OCO3)nc(N2CCN(C)CC2)n1             GI50     5.5 µM
 6  N/C(=N\OC(=O)c1ccccc1)C(C(=O)NOC(=O)c1ccccc1)C1CCCCC1 (stereo not given)             GI50    14.6 µM
 7  NS(=O)(=O)c1ccc(N2Cc3cc(Cl)ccc3OC3=C2C(=O)N(CC2CCCCC2)C3=O)cc1             GI50    1.76 µM
 8  CSc1ccc(/C=C2\CNC/C(=C\c3ccc(SC)cc3)C2=O)cc1             GI50  150 µg/mL
 9  CC(=O)c1cccc(N(/C=C/C(=O)C(F)(F)F)CC(=O)c2ccc(Cl)cc2)c1             GI50   > 100 µM
10  Cc1cccc(NC(=O)c2sc3nc4c(cc3c2N)CCCC4)c1C             GI50    1.79 µM

====

# Test system: A549 NSCLC
# protocol_text: NCI tumour cell line growth inhibition, 48 h; in the data active means GI50 below about 0.43 µM; inactive means the rest
Outcomes: active, inactive

compound	qualitative_label
CS(=O)(=O)c1ccc(Cl)c([N+](=O)[O-])c1	inactive
COc1cc2cc(Oc3ccc(NC(=O)c4cccc(C(F)(F)F)c4)cc3)c(C)nc2cc1OC	inactive
CCN(CCCCCCCCCCN1CC(=O)N(CCCCCCCCCCN(CC)Cc2ccccc2OC)CC1=O)Cc1ccccc1OC	inactive
CNC(=O)Nc1ccc(-c2nc(N3CCOCC3)nc3c2cnn3C2CCOCC2)cc1	active
O=C1/C(=C/c2ccc(Cl)cc2)CCCc2ccc(F)cc21	inactive
COc1cc(/C=C2\CN(C)CC3=C2Nc2nc(SC)[nH]c(=O)c2C3c2cc(OC)c(OC)c(OC)c2)cc(OC)c1OC (centres undefined)	inactive
COC(=O)C1=C(OC(=O)c2ccc(Cl)cc2)C(C(=O)OC)[C@@]2(O)[C@@H](C(=O)OC)C(c3ccccc3C(F)(F)F)C[C@@H]1[C@@H]2C(=O)OC (some centres undefined)	inactive
C[C@]12CC[C@@H]3c4ccc(O)c([N+](=O)[O-])c4CC[C@H]3[C@@H]1CC[C@@H]2NS(=O)(=O)c1ccc(C(F)(F)F)cc1	inactive
CC(=O)c1cccc(N(/C=C/C(=O)C(F)(F)F)CC(=O)c2ccc(Cl)cc2)c1	inactive

====

# Tested on: MALME-3M melanoma
# protocol_text: NCI tumour cell line growth inhibition, 48 h
Recorded TGI by entry
reported_metric: TGI (µM)

> print(dat)
                                   compound        test.system  reported.metric  result.unit  value.prefix  numeric.readout
1  S=c1[nH]nc(Cn2c3ccc(Br)cc3c3nc4ccccc4nc32)n1C1CCCCC1  MALME-3M melanoma              TGI           µM             =             72.7
2  Cc1cc([N+](=O)[O-])c(C)c2c1[nH]c1ccc(/C(CCC3CCCC3)=N\N)cc12  MALME-3M melanoma              TGI           µM             =               32
3        O=c1nc(-c2ccccc2)c2c3c(cccn13)CCC2  MALME-3M melanoma              TGI           µM             >              100
4  O=P1(C(O)/C=C/c2ccccc2)N(Cc2ccccc2)[C@@H]2CCCC[C@H]2N1Cc1ccccc1 (stereo not given in full)  MALME-3M melanoma              TGI           µM             =             8.45
5  C[n+]1cc2c3c(ccc2c2ccc4cc5c(cc4c21)OCO5)OCO3  MALME-3M melanoma              TGI           µM             =             1.83

====

# Tested on: NCI-H522 lung
# protocol_text: NCI tumour cell line growth inhibition, 48 h; in the data active = GI50 below about 0.43 µM; inactive = the rest
Outcomes: yes (active), no (inactive)

compound	qualitative_label
CC(C)N(C(C)C)[PH+]1O[PH+](N(C(C)C)C(C)C)O[PH+](N(C(C)C)C(C)C)O[PH+](N(C(C)C)C(C)C)O[PH+](N(C(C)C)C(C)C)O1.[C-]#[O+].[C-]#[O+].[C-]#[O+].[C-]#[O+].[C-]#[O+].[C-]#[O+].[C-]#[O+].[Cr].[Cr] (configuration not stated)	no
COc1ccc2nc(-c3ccccc3)cc(Nc3cccc(/C(C)=N\O)c3)c2c1	no
COc1ccc(C(=O)N2c3ccccc3Sc3ccccc32)c(F)c1	yes
COC(=O)C1=C(OC(=O)c2ccc(Cl)cc2)C(C(=O)OC)[C@@]2(O)[C@@H](C(=O)OC)C(c3ccccc3C(F)(F)F)C[C@@H]1[C@@H]2C(=O)OC (some centres not stated)	no
COc1cc2cc(Oc3ccc(NC(=O)c4cccc(C(F)(F)F)c4)cc3)c(C)nc2cc1OC	no
S=C(N/N=C/c1cc(Cl)cc(Cl)c1)NC12CC3CC(CC(C3)C1)C2	no
COc1ccc(-c2cc(-c3ccc(Cl)cc3)c(C#N)c(=O)n2CCCCC(=O)Nc2ccccc2N)cc1	no

====

Recorded TGI by entry
# Test system: IGROV1 ovarian
# protocol_text: NCI tumour cell line growth inhibition, 48 h
reported_metric: TGI

> print(dat)
                                    compound  reported.metric     result
 1  COc1cc(OC)cc(Oc2nc3cc(F)c(F)cc3nc2-c2ccccc2)c1              TGI   > 100 µM
 2  CC[O-].CC[O-].O=C1C(=C([O-])c2ccccc2)C(=O)c2ccccc21.O=C1C(=C([O-])c2ccccc2)C(=O)c2ccccc21.[Ti+4]              TGI   > 100 µM
 3  O=c1[nH]c(=O)n(C2CC(O)C(CO)O2)cc1OC/C=C/Cc1ccccc1 (centres undefined)              TGI   > 100 µM
 4     COc1cc2c3c(cc(Cl)nc3c1OC)C(=O)C(=O)N2              TGI    25.1 µM
 5  N/C(=N\OC(=O)c1ccccc1)C(C(=O)NOC(=O)c1ccccc1)C1CCCCC1 (centres undefined)              TGI    3.92 µM
 6  Cc1ccc(C(=O)/C(=C/c2ccc([N+](=O)[O-])cc2)S(=O)Cc2ccccc2)cc1 (centres undefined)              TGI    3.29 µM
 7  CC(C)N(C(=O)C12C3C4C1C1C2C3C41C(O)C(C)(C)C)C(C)C (centres undefined)              TGI    > 50 µM
 8  C/C(=N/N(C=O)C[n+]1ccccc1)C(CN(CC(C)C)CC(C)C)C(=O)Nc1ccc(C)cc1C (centres undefined)              TGI   > 100 µM
 9  CC[C@H](C)[C@H](NC(=O)c1cnccn1)C(=O)N(C)[C@H](C[C@@H](OC(C)=O)c1nc(C(=O)N[C@@H](Cc2ccccc2)C[C@H](C)C(=O)OC)cs1)C(C)C              TGI  > 33.3 µM
10             C[N+]1(CCN=C=NC2CCCCC2)CCOCC1              TGI   > 100 µM
11  O=[N+]([O-])c1ccc(N=Nc2c(O)[nH]c3ccc([N+](=O)[O-])cc23)cc1              TGI   > 100 µM
12  CC(C)=CCC12Cc3ccc(O)cc3C(C(C)CN1)C2C (centres undefined)              TGI   > 100 µM
13  C=C(C)C1CC2C(C)=C(OC(C)=O)C1n1c(=O)c3cc4ccccc4cc3c(=O)n12 (centres undefined)              TGI   > 100 µM
14  CC1(C)O[C@H]2OC3CCC(=O)CC3(O)[C@H]2O1 (some centres undefined)              TGI   > 100 µM
